# protocol-details: The drug is tested on Clostridium sporogenes strain: ATCC15579 for biotransformation. The drug concentrations were measured before and after a 12-h incubation by liquid-chromatography-coupled mass spectrometry (LC–MS)
# measurement-context: 2 µM
readout-name: Bacterial Biotransformation

Cc1cc2c(s1)Nc1ccccc1N=C2N1CCN(C)CC1 [OLANZAPINE]
Compound NOT metabolized
C[C@H]1O[C@@H](O[C@H]2[C@@H](O)C[C@H](O[C@H]3[C@@H](O)C[C@H](O[C@H]4CC[C@@]5(C)[C@H](CC[C@@H]6[C@@H]5C[C@@H](O)[C@]5(C)[C@@H](C7=CC(=O)OC7)CC[C@]65O)C4)O[C@@H]3C)O[C@@H]2C)C[C@H](O)[C@@H]1O [DIGOXIN]
Compound NOT metabolized
